Reference source: paper PMC6792352

Procedure Details: in vitro
Cond: rat, gh3-tre-luc cells, AC50 (uM) modified / 1000, Tox21_110001=Tox21_112345; viability, 1 nM T3 present, 24 h
Measurement Name: CC50 at 24 h (µM)
Kindly provide the numeric value in µM only, without the unit symbol.

The compound listed as ClC1=C(Cl)C2(Cl)C(CBr)CC1(Cl)C2(Cl)Cl (stereo not shown) shows CC50 at 24 h equal to 22.4

---

Procedure Details: in vitro
Cond: rat, gh3-tre-luc cells, AC50 (uM) modified / 1000, Tox21_110001=Tox21_113078; viability, 1 nM T3 present, 24 h
Measurement Name: CC50 at 24 h
Dear colleague, please send the value followed by its unit.

The molecule listed as CC(C)C[C@H]1C(=O)N2CCC[C@H]2[C@]2(O)O[C@](NC(=O)[C@@H]3C[C@@H]4c5cccc6[nH]cc(c56)C[C@H]4N(C)C3)(C(C)C)C(=O)N12 [Dihydroergocriptine] shows CC50 at 24 h equal to 39.2 µM
